Data provenance is patent US9067948B2.

Overview of reported pIC50 across a group of compounds:
ASSAY SYSTEM: IRAK-4 (Homo sapiens)
Sequence (Q9NWZ3 whole entry): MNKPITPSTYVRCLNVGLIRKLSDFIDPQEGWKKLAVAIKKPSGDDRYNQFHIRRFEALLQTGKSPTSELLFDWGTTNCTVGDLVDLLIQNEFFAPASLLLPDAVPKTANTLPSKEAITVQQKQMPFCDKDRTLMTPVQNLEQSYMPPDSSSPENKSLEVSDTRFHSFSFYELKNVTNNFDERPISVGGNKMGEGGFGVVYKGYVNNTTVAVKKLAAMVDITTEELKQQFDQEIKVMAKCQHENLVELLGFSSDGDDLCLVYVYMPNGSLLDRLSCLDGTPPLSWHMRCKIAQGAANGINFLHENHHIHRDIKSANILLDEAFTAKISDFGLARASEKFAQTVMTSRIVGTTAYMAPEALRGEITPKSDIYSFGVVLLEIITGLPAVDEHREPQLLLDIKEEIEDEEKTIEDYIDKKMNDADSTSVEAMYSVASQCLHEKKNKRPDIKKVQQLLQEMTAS
MEASUREMENT PROTOCOL: IRAK-4 activity inhibition assay (Caliper)
Type: biochemical
MEASUREMENT SETUP: 3.5 nM IRAK4, 37 μM ATP, 1.5 μM Peptide 8, 28° C. 40 minutes
pIC50: −log10 of the molar value.
METRIC NAME: pIC50

chemical_smiles=Cn1cc(Nc2cc(N[C@H]3CC[C@H](N4CCOCC4)CC3)c3c4c(sc3n2)CCC4)cn1 metric_name=pIC50 recorded_result="4.30 to 4.70"
chemical_smiles=CN[C@H]1CC[C@H](Nc2ccnc3sc4c(c23)CCC4)CC1 metric_name=pIC50 recorded_result="≥ 5.30"
chemical_smiles=c1cc(N[C@H]2CC[C@H](N3CCOCC3)CC2)c2c3c(sc2n1)CCC3 metric_name=pIC50 recorded_result="≥ 5.30"
chemical_smiles=c1cc(O[C@H]2CC[C@H](N3CCOCC3)CC2)c2c3c(sc2n1)CCC3 metric_name=pIC50 recorded_result="≥ 5.30"
chemical_smiles=CN(CC(=O)N1CCCC1)[C@H]1CC[C@H](Nc2ccnc3sc4c(c23)CCC4)CC1 metric_name=pIC50 recorded_result="≥ 5.30"
chemical_smiles=N[C@H]1CC[C@H](Nc2ccnc3sc4c(c23)CCC4)CC1 metric_name=pIC50 recorded_result="≥ 5.30"
